Test system: HS 578T breast
method-description: NCI tumour cell line growth inhibition, 48 h
Tick 1 (yes) if TGI is 10 µM or greater. Tick 0 (no) if TGI is less than 10 µM.

Prompt: // inclusive: TGI at least 10 µM? input: O=[N+]([O-])c1ccc(Cl)c(CNc2ncnc3c2ncn3C2CCCCO2)c1 (centres undefined)
Response: 1 (yes)

Prompt: Would you say "CC/C(Cc1ccccc1)=C(\c1ccc(OCCN2CCCC2)cc1)c1ccc(OC(=O)NCc2ccccc2)cc1" shows TGI at minimum 10 µM?
Response: 0 (no)

Prompt: Could you verify whether the entry "CC(C)OC(=S)Nc1ccc(Cl)c(/C=N/OC(C)(C)C)c1" shows TGI of no less than 10 µM?
Response: 1 (yes)

Prompt: Answer whether TGI of "Cc1cc(-c2c(F)cc3c4nn([C@H]5CC[C@@H](N(C)C)CC5)c(=O)c-4cn(C4CC4)c3c2F)cc(C)n1" is greater than or equal to 10 µM.
Response: 0 (no)

Prompt: Determine whether this molecule has TGI no lower than 10 µM: "CN=C1C=CC(=C(c2ccc(N(C)C)cc2)c2ccc(N(C)C)cc2)C=C1"
Response: 0 (no)

Prompt: Please indicate if the recorded TGI for "Oc1ccc(Oc2cc3c(cc2Oc2ccc(O)cc2)-c2nc-3nc3[nH]c(nc4nc(nc5[nH]c(n2)c2cc(Oc6ccc(O)cc6)c(Oc6ccc(O)cc6)cc52)-c2cc(Oc5ccc(O)cc5)c(Oc5ccc(O)cc5)cc2-4)c2cc(Oc4ccc(O)cc4)c(Oc4ccc(O)cc4)cc32)cc1" meets or exceeds 10 µM.
Response: 1 (yes)

Prompt: Kindly determine if TGI recorded for "COc1cc(Oc2nc3cc(F)c(F)cc3nc2-c2ccccc2)cc(OC)c1OC" is above or exactly 10 µM.
Response: 1 (yes)

Prompt: Evaluate "O=c1[nH]nc(Cc2ccc(Cl)cc2)n1/N=C/c1ccc([N+](=O)[O-])o1" : TGI at minimum 10 µM?
Response: 0 (no)

Prompt: Textbook exercise: given the entry "CCCc1cc(=O)n2c(C(=O)Nc3ccc(F)cc3)c(C(=O)Nc3ccc(F)cc3)sc2n1" , state whether its TGI is greater than or equal to 10 µM.
Response: 1 (yes)
